- Test protocol: circadian clock period modulators, cell-based, LOPAC library, luminescence reporter (AID 2774);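 further: values are relative to mean of DMSO wells on each plate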
- Protocol conditions: circadian reporter cells, at 7 µM, actives lie on both sides
The source made the active and inactive calls. How the calls were made is not given here.
Assay metric: period change

CCn1cnc2c(Nc3cccc(Cl)c3)nc(N[C@@H]3CCCC[C@@H]3N)nc21 | 0.275 h (inactive)
CCCC(C)(COC(N)=O)COC(=O)NC(C)C (stereo not drawn) | 0.065 h (inactive)
CCCCc1ccc(C(=O)O)nc1 | -0.03 h (inactive)
CCCN(CCC)[C@@H]1CCc2ccc(O)cc2C1 | 0.12 h (inactive)
C[N+]1(C)CCC(OC(=O)C(c2ccccc2)c2ccccc2)CC1 | 0.03 h (inactive)
C#CCOC(=O)C1=CCCN(C)C1 | -0.055 h (inactive)
c1ccc2c(c1)OCC(C1=NCCN1)O2 (stereo not drawn) | 0.1 h (inactive)
CC1=NN=C(c2ccc(N)cc2)c2cc3c(cc2C1)OCO3 | 0.095 h (inactive)
CP(=O)(O)CCCN | -0.005 h (inactive)
CC12NC(Cc3ccccc31)c1ccccc12 (stereo not drawn) | 0.25 h (inactive)

Quick batch: period change for everything below.
1. O=C1CC[C@@]2(O)C3Cc4ccc(O)c5c4C2(CCN3CC2CC2)[C@H]1O5 (stereo partly drawn)
2. COC(=O)c1cc2c(cn1)[nH]c1ccccc12
3. Oc1ccc2c3c1O[C@H]1c4[nH]c5c(c4C[C@@]4(O)[C@@H](C2)N(CC2CC2)CC[C@]314)C[C@@]1(O)[C@H]2Cc3ccc(O)c4c3[C@@]1(CCN2CC1CC1)[C@H]5O4
4. C[C@H](Cc1ccc2c(c1)OC(C(=O)O)(C(=O)O)O2)NC[C@H](O)c1cccc(Cl)c1
5. O=C(Cc1ccc(Cl)c(Cl)c1)N1CCCCC1CN1CCCC1 (stereo not drawn)
6. CC[C@@H](CO)NC(=O)[C@@H]1C=C2c3cccc4c3c(cn4C)C[C@H]2N(C)C1
7. C[C@]12Cc3cn4c(nc3C=C1CCC1C2CC[C@@]2(C)[C@H]1CC[C@@]2(O)C#N)nc1ccccc14 (stereo partly drawn)
8. NC(=O)CN1CC(O)CC1=O (stereo not drawn)

Response given:
1: -0.05 h (inactive); 2: 0.035 h (inactive); 3: -0.025 h (inactive); 4: 0.1 h (inactive); 5: -0.135 h (inactive); 6: 0.11 h (inactive); 7: 0.285 h (inactive); 8: 0.03 h (inactive)

Please give period change, item by item, for the list that follows.
1. Clc1ccc(C(c2ccc(Cl)cc2)n2cc[n+](CC(OCc3ccc(Cl)cc3Cl)c3ccc(Cl)cc3Cl)c2)cc1 (stereo not drawn)
2. O=C1CCCN1CC#CCN1CCCC1
3. NC(CCP(=O)(O)O)C(=O)O (stereo not drawn)

Response given:
1: -0.26 h (inactive); 2: 0.015 h (inactive); 3: 0.135 h (inactive)

Quick one: give me period change for each item below, same order please.
1. O=[N+]([O-])c1ccc2nc(N3CCNCC3)ccc2c1
2. C[N+](C)(C)CC#CCOC(=O)Nc1cccc(Cl)c1
3. O=c1[nH]c2ccccc2n1CCCN1CCC(n2c(=O)[nH]c3cc(Cl)ccc32)CC1
4. N[C@@H](CCl)C(=O)O

Response given:
["-0.09 h (inactive)", "0.045 h (inactive)", "-0.195 h (inactive)", "0.125 h (inactive)"]

Lab note: each compound below needs its period change filled in.
1. NC(=O)CN1CCCC1=O
2. CN1C2CCC1CC(OC(c1ccccc1)c1ccc(Cl)cc1)C2 (stereo not drawn)

Response given:
["0.015 h (inactive)", "0.035 h (inactive)"]

I have 3 compounds here; please give me period change for each one.
1. C[C@]12CC[C@H](O)CC1=CC[C@@H]1[C@@H]2CC[C@]2(C)C(=O)CC[C@@H]12
2. NC(=NCCC[C@H](N)C(=O)O)N[N+](=O)[O-]
3. NCC#Cc1ccccc1

Response given:
1. -0.175 h (inactive)
2. 0.04 h (inactive)
3. 0.045 h (inactive)

Dear colleague, could you please provide period change for the compounds listed below?
1. CC[C@@H]1/C=C/C=C/C[C@H](C)[C@@H](O)[C@](C)(O)C(=O)[C@H](C)[C@@H](O)[C@H](C)C(=O)[C@H](C)[C@@H](O)[C@H](C)/C=C/C(=O)O[C@H]2[C@@H](C)[C@@H](CC1)O[C@@]1(CC[C@@H](C)[C@@H](CC(C)O)O1)[C@@H]2C (stereo partly drawn)
2. C[C@@H]1O[C@@H](O[C@H]2C[C@@H](O)[C@]3(CO)[C@H]4[C@H](O)C[C@]5(C)[C@@H](C6=CC(=O)OC6)CC[C@]5(O)[C@@H]4CC[C@]3(O)C2)[C@H](O)[C@H](O)[C@H]1O
3. C[C@H]1OC[C@@H](C[N+](C)(C)C)O1

Response given:
1. -1.77 h (inactive)
2. -0.18 h (inactive)
3. -0.07 h (inactive)

Below are 5 compounds. Give each one its period change.
1. c1ccc2c(N3CCNCC3)cccc2c1
2. Clc1ccc(N2CC3CCC(C2)N3)nn1
3. CC(=O)[C@H]1CC[C@H]2[C@@H]3CC[C@H]4C[C@H](O)CC[C@]4(C)[C@H]3C(=O)C[C@]12C
4. CC(C)CC(NP(=O)(O)O[C@@H]1O[C@@H](C)[C@H](O)[C@@H](O)[C@H]1O)C(=O)NC(Cc1c[nH]c2ccccc12)C(=O)O (stereo partly drawn)
5. C#CCN(C)[C@@H](C)Cc1ccccc1

Response given:
1: 0.19 h (inactive); 2: -0.11 h (inactive); 3: -0.1 h (inactive); 4: 0.015 h (inactive); 5: 0.185 h (inactive)

----------
- Subject of test: Protein kinase 7 (PK7), Plasmodium falciparum 3D7 (PF3D7_0213400)
- Test protocol: inhibition of Plasmodium PK7 catalytic activity – biochemical, TCAMS antimalarial set, Kinase-Glo luminescence (AID 1159587)
- Protocol conditions: recombinant PfPK7, Kinase-Glo ATP depletion luminescence
Active and inactive are the calls of the source. The rule behind the calls is not given here.
Assay metric: outcome

Some solved cases for reference:
CC[C@H]1CN2CC[C@H]1C[C@H]2[C@H](O)c1cc(-c2ccc3ccccc3c2)nc2ccc(OC)cc12 | inactive
C/C=C1\CN2CC[C@H]1C[C@H]2[C@H](O)c1ccnc2ccc(OC)cc12 | inactive
CC[C@H]1CN2CC[C@@H]1C[C@H]2[C@H](O)c1cc(N2CCC(C)CC2)nc2ccc(OC)cc12 | inactive
Cc1ccc(C)c(N2CCN(Cc3ccccc3O)CC2)c1 | inactive
COCCSc1ccc(CC(C)NCC(O)c2cccc(Cl)c2)cc1 (stereo not drawn) | inactive
CCOC(=O)c1c(CN2CCN(C)CC2)n(Cc2ccccc2)c2cc(Br)c(O)cc12 | inactive

The following compounds each have a reported value; give each one's outcome.
1. O=C(NCc1ccc(S(=O)(=O)N2CCC(CN3CCC(c4c[nH]c5ccccc45)CC3)CC2)s1)c1ccccc1
2. CC[C@H]1CN2CC[C@H]1C[C@H]2[C@H](OC(=O)c1ccccc1)c1cc(C#N)nc2ccc(OC)cc12
3. O=C(/C=C/c1cc(C(F)(F)F)ccc1F)N1CCC(CN2CCC(c3c[nH]c4ccccc34)CC2)CC1
4. CC[C@H]1CN2CC[C@@H]1C[C@H]2[C@H](O)c1cc(N2CCC(N3CCCCC3)CC2)nc2ccc(OC)cc12
5. Cc1cc(C2CCCCN2C)ccc1-c1ccc(C(=O)N2CCc3cc4c(cc32)C2(CCN(C)CC2)CO4)cc1 (stereo not drawn)
6. Cn1c(C2C[C@H]3CC[C@H](C2)N3CC2CCC(NC(=O)/C=C/c3ccc(Cl)c(Cl)c3)CC2)nc2ccccc21 (stereo partly drawn)
7. O=C(/C=C/c1ccc(Cl)c(Cl)c1)N1CCC(CN2[C@@H]3CC[C@H]2CC(c2c[nH]c4ccccc24)C3)CC1 (stereo partly drawn)

Response given:
1: inactive; 2: inactive; 3: inactive; 4: inactive; 5: inactive; 6: inactive; 7: inactive

----------
Hi there, I'd appreciate the recorded normalised cell number for every entry that follows.
- Test protocol: differential killing of epithelial or mesenchymal cells, primary screen, imaging, PC-3E GFP, TEM4-18 mCherry, co-culture (AID 1345086);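 further: cells exposed to compound for 72 h before imaging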
- Protocol conditions: imaging cell counts, measured here: epithelial PC-3E GFP cell survival, at 1 µM
Numbers only.

Below are worked cases with known answers.
C[C@]12CCC3C(CC[C@]4(O)C[C@@H](O)CC[C@]34C=O)[C@@]1(O)CCC2C1=CC(=O)OC1 (some centres not stated) | 0.18
CC1=CC(=O)c2c(O)cccc2C1=O | 0.08
c1ccc2c(c1)cc1ccc3cccc4ccc2c1c34 | 1.22
O=C1NCC[C@H]1O | 1.13
CC(C)[C@@H]1CC[C@](O)(CCl)[C@@H]2C(=O)OCC(C(=O)O)=C[C@H]21 | 1

Give measured normalised cell number for every item shown.
1. C[C@@H]1CC(Cl)CC[C@H]1C(=O)OC(C)(C)C (some centres not stated)
2. Oc1cc(Cl)ccc1Oc1ccc(Cl)cc1Cl
3. C=CCC1(C(C)CCC)C(=O)N=C(S)NC1=O (configuration not stated)
4. O=C1CC[C@@]2(O)[C@H]3Cc4ccc(O)c5c4C2(CCN3CC2CC2)[C@H]1O5
5. O=C(O)Cc1ccccc1
6. O=C1CCO1
7. Cc1cc(OC(=O)N2CCCCC2)c(C(C)C)cc1[N+](C)(C)C

Response given:
[1.09, 1.03, 0.79, 1.01, 1.01, 0.9, 1.16]
